- SYSTEM_NAME: LCAT (Homo sapiens)
- Construct: The obtained fraction was dialyzed against phosphate-buffered saline (pH 7.4) and used as an enzyme source and an acceptor for LCAT
- Sequence (P04180 25-440): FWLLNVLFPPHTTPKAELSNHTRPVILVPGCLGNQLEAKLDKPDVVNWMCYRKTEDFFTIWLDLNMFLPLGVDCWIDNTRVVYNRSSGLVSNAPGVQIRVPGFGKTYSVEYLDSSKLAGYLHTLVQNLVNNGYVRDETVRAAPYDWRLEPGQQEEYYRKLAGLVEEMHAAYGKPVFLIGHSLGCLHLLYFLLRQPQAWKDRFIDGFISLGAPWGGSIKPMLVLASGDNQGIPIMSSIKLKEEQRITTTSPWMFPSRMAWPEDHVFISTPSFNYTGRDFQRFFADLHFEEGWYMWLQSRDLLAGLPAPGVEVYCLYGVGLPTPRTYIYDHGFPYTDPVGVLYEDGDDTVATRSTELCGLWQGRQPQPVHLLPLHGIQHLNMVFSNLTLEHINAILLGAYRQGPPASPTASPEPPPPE
- ASSAY_OVERVIEW: LCAT Activity Measurement (In Vitro)
- CONDITION: EC50 of LCAT activation; HDL3 fraction from plasma of a healthy person as enzyme source and acceptor; [14C]cholesterol; 37° C., approximately 16 hours
MEASURED_ENDPOINT: EC50 (nM)
Please respond with the number in nM and leave the unit unwritten.

Field request: EC50 | item: O=C1CC(O)(C(F)(F)F)c2c(C3CCN(c4ccnc(C(F)(F)F)n4)CC3)n[nH]c2N1 (stereo not shown)
300

Field request: EC50 | item: O=C1CC(O)(C(F)(F)F)c2c(C3CCN(c4ccc(OC(F)F)nc4)CC3)n[nH]c2N1 (stereo not shown)
70

Field request: EC50 | item: O=C1CC(O)(C(F)(F)F)c2c(C3CCN(c4ccc(OC(F)(F)F)cn4)CC3)n[nH]c2N1 (stereo not shown)
18

Field request: EC50 | item: CCOC(=O)c1oc(N2CCC(c3n[nH]c4c3C(O)(C(F)(F)F)CC(=O)N4)CC2)nc1C(F)(F)F (stereo not shown)
77
